B1: MTMR15 (parent)
chain: YVKAKKSIDKDEEFAGSSPQSSKS

variants of: B1; assay: protein stability index of a GFP-peptide fusion (GPS, HEK-293T) (PSI 1-6); higher = more stable; settings: c terminus: a fixed tail appended;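 also: lentivirally expressed fusions sorted by FACS into six bins by GFP to DsRed ratio, PSI derived from sequencing read proportions per bin multiplied by bin number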
Quick rule for you: protein stability index at 3 or higher means TRUE, lower means FALSE.

variant notation: Y1A
assigned label: TRUE
--
variant notation: I8A
assigned label: TRUE
--
variant notation: K23T
assigned label: TRUE
--
variant notation: S22E
assigned label: TRUE
--
variant notation: Q20H
assigned label: TRUE
--
variant notation: V2H
assigned label: TRUE
--
variant notation: A4Q
assigned label: TRUE
--
variant notation: S18V
assigned label: TRUE
--
variant notation: A4Y
assigned label: TRUE
--
variant notation: S18C
assigned label: FALSE
--
variant notation: S24I
assigned label: TRUE
--
variant notation: K23N
assigned label: TRUE
--
variant notation: Q20D
assigned label: TRUE
--
variant notation: Y1L
assigned label: TRUE
--
variant notation: F14E
assigned label: TRUE
--
variant notation: S17A
assigned label: FALSE
--
variant notation: A15H
assigned label: TRUE
--
variant notation: S18E
assigned label: TRUE
--
variant notation: Q20C
assigned label: FALSE
--
variant notation: E12G
assigned label: FALSE
--
variant notation: A15Y
assigned label: FALSE
--
variant notation: S22W
assigned label: FALSE
--
variant notation: E12L
assigned label: FALSE
--
variant notation: D11P
assigned label: FALSE
--
variant notation: F14V
assigned label: TRUE
--
variant notation: S21N
assigned label: TRUE
--
variant notation: S21G
assigned label: FALSE
--
variant notation: K5S
assigned label: TRUE
--
variant notation: E13K
assigned label: FALSE
--
variant notation: S22L
assigned label: FALSE
--
variant notation: S24L
assigned label: FALSE
--
variant notation: Y1G
assigned label: TRUE
--
variant notation: G16Y
assigned label: FALSE
--
variant notation: G16F
assigned label: FALSE
--
variant notation: A4P
assigned label: TRUE
--
variant notation: Q20T
assigned label: TRUE
--
variant notation: S21L
assigned label: FALSE
--
variant notation: K6N
assigned label: TRUE
--
variant notation: V2Y
assigned label: TRUE
--
variant notation: S24H
assigned label: TRUE
--
variant notation: K6R
assigned label: TRUE
--
variant notation: Q20V
assigned label: FALSE
--
variant notation: F14R
assigned label: TRUE
--
variant notation: K6C
assigned label: FALSE
--
variant notation: I8N
assigned label: TRUE
--
variant notation: S24E
assigned label: TRUE
--
variant notation: V2A
assigned label: TRUE
--
variant notation: A15N
assigned label: FALSE
--
variant notation: I8S
assigned label: TRUE
--
variant notation: S17M
assigned label: FALSE
--
variant notation: P19F
assigned label: FALSE
--
variant notation: K23P
assigned label: TRUE
--
variant notation: A15R
assigned label: FALSE
--
variant notation: K10D
assigned label: TRUE
--
variant notation: I8F
assigned label: FALSE
--
variant notation: S7D
assigned label: FALSE
--
variant notation: K10F
assigned label: FALSE
--
variant notation: P19V
assigned label: FALSE
--
variant notation: G16S
assigned label: TRUE
--
variant notation: S21D
assigned label: TRUE
--
variant notation: K5T
assigned label: TRUE
--
variant notation: P19A
assigned label: TRUE
--
variant notation: P19D
assigned label: TRUE
--
variant notation: I8T
assigned label: TRUE
--
variant notation: S21W
assigned label: FALSE
--
variant notation: A15D
assigned label: TRUE
--
variant notation: S18T
assigned label: FALSE
--
variant notation: K3T
assigned label: FALSE
--
variant notation: G16P
assigned label: TRUE
--
variant notation: K6Q
assigned label: TRUE
--
variant notation: K10Q
assigned label: FALSE
--
variant notation: S17P
assigned label: FALSE
--
variant notation: A4H
assigned label: TRUE
--
variant notation: S22I
assigned label: TRUE
